ASSAYED TARGET: HIV-1 Env of isolate MGRM-F1-010 (subtype F) (HIV-1)
RUN DESCRIPTION: cell-based or functional assay
Documented IC50 (neutralization) across a set of binders
MEASURED PROPERTY: IC50 (neutralization)

# BINDER, RECORDED VALUE
data = [
    ("PGT-126 (antibody, V domains shown) VH: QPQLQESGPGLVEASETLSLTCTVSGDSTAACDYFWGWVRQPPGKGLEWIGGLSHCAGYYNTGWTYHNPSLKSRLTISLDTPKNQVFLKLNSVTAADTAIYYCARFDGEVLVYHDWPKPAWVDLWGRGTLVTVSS VL: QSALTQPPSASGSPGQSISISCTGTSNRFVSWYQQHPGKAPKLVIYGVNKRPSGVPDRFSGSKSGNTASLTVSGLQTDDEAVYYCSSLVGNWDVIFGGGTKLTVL", "> 50 µg/mL"),
    ("PGT-130 (antibody, V domains shown) VH: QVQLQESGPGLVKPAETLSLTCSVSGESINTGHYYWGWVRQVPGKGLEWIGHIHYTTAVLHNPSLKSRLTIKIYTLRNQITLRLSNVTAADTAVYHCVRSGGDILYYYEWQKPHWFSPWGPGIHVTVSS VL: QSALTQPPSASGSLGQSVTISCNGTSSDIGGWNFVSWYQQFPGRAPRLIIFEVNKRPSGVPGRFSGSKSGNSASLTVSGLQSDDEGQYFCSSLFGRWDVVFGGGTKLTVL", "> 50 µg/mL"),
    ("PGT-127 (antibody, V domains shown) VH: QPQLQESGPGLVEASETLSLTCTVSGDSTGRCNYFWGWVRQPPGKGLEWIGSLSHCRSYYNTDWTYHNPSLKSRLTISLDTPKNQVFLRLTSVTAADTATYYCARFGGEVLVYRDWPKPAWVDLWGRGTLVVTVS VL: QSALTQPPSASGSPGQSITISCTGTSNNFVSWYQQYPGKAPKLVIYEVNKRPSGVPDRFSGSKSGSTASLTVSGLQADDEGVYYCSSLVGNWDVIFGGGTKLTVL", "> 50 µg/mL"),
    ("PGT-137 (antibody, V domains shown) VH: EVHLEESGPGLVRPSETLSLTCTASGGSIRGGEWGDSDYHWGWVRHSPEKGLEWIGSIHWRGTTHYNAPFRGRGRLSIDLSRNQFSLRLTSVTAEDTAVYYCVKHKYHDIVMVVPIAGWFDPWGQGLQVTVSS VL: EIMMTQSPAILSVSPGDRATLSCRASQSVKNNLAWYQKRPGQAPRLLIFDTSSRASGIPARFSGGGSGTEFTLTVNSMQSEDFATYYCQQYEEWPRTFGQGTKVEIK", "> 50 µg/mL"),
    ("PGT-123 (antibody, V domains shown) VH: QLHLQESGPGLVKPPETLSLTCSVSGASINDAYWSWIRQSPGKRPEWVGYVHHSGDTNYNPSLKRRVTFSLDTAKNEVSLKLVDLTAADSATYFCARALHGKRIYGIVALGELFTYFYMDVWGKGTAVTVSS VL: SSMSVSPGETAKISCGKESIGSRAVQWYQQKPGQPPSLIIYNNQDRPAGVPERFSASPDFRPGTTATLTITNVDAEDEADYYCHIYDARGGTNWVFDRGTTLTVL", "0.016 µg/mL"),
]
